# Activity against gametocytes Efficacy (% response) per record follows
# Tested on: P. falciparum 3D7 gametocytes
# measurementProtocol: alamarBlue gametocyte viability assay, strain 3D7
# Type: cell-based, Plasmodium falciparum
# settings: SI Table 3, structure clusters
Structures can show the parent of a compound that is named as a salt.
Field: numeric (% response). Do not append units.

Check out these entries, answers already filled in.
Prompt: Give Activity against gametocytes Efficacy (% response) for the following compound: CN1CCC(=C2c3ccccc3C=Cc3ccccc32)CC1 [Cyproheptadine]
Response: -122.81

Prompt: Give Activity against gametocytes Efficacy (% response) for the following compound: CN(C)CCC=C1c2ccccc2C(C)(C)c2ccccc21.Cl [Melitracen hydrochloride, reference compound]
Response: -103.56

Please examine the following record next.
Prompt: Give Activity against gametocytes Efficacy (% response) for the following compound: CN1CCC(=C2c3ccccc3C=Cc3ccccc32)CC1 [Cyproheptadine hydrochloride]
Response: -80.99

* * *

# IC50 per record follows
# Tested on: P. falciparum 3D7 gametocytes
# measurementProtocol: alamarBlue gametocyte viability assay, strain 3D7
# Format: cell-based, Plasmodium falciparum
# settings: Plasmodium falciparum, 3D7, strain profiling; 11 concentrations, 1:3 dilution, three times; read-out: 3D7-gametocytes IC50
Where a name gives a salt, the structure may show the parent alone.

Prompt: Give IC50 for the following compound: C/C=C1\NC(=O)[C@H]2CSSCC/C=C/[C@H](CC(=O)N[C@H](C(C)C)C(=O)N2)OC(=O)[C@H](C(C)C)NC1=O [Romidepsin]
Response: 0.264 µM

***
Prompt: Give IC50 for the following compound: CNc1ccc2oc(C[C@H]3O[C@@]4(CC[C@H]3C)O[C@H]([C@H](C)C(=O)c3ccc[nH]3)[C@H](C)C[C@H]4C)nc2c1C(=O)O [Calcimycin]
Response: 2.64 µM

Prompt: Give IC50 for the following compound: CO[C@@H]1[C@@H](OC)[C@H](C)[C@@](O)(CC(=O)O)O[C@H]1[C@H](C)[C@H]1O[C@@]2(CC[C@@](C)([C@H]3CC[C@@](C)([C@@H]4O[C@@H]([C@H]5O[C@](C)(O)[C@H](C)C[C@@H]5C)C[C@@H]4O[C@@H]4C[C@H](OC)[C@@H](OC)[C@H](C)O4)O3)O2)C[C@H](O)[C@H]1C [Maduramicin ammonium]
Response: 0.024 µM

Prompt: Give IC50 for the following compound: CCCCN(CCCC)CC(O)c1cc(Cl)cc2c1-c1ccc(Cl)cc1/C2=C/c1ccc(Cl)cc1 (stereo not shown) [Lumefantrine]
Response: 0.059 µM

Prompt: Give IC50 for the following compound: COC(=O)C[C@](O)(CCCC(C)(C)O)C(=O)O[C@@H]1C(OC)=C[C@]23CCCN2CCc2cc4c(cc2[C@H]13)OCO4 [Omacetaxine mepesuccinate]
Response: 0.059 µM

Prompt: Give IC50 for the following compound: OC(c1cc(C(F)(F)F)nc2c(C(F)(F)F)cccc12)C1CCCCN1 (stereo not shown) [Mefloquine hydrochloride]
Response: 0.074 µM

Prompt: Give IC50 for the following compound: CC(C)C[C@H](NC(=O)[C@H](CCc1ccccc1)NC(=O)CN1CCOCC1)C(=O)N[C@@H](Cc1ccccc1)C(=O)N[C@@H](CC(C)C)C(=O)[C@@]1(C)CO1 [Carfilzomib]
Response: 0.004 µM

Prompt: Give IC50 for the following compound: CO[C@H]1O[C@@H]2O[C@@]3(C)CC[C@H]4[C@H](C)CC[C@@H]([C@H]1C)[C@@]24OO3 [Artemether]
Response: 0.074 µM

Prompt: Give IC50 for the following compound: CCN(CC)C(=S)SSC(=S)N(CC)CC [Disulfiram]
Response: 0.096 µM

Prompt: Give IC50 for the following compound: CC[C@@H](C(=O)[C@@H](C)[C@@H](O)[C@H](C)[C@@H]1O[C@@H]([C@@H](CC)C(=O)O)CC[C@@H]1C)[C@H]1O[C@]2(C=C[C@@H](O)[C@]3(CC[C@@](C)([C@H]4CC[C@](O)(CC)[C@H](C)O4)O3)O2)[C@H](C)C[C@@H]1C [Salinomycin sodium]
Response: 0.118 µM

Prompt: Give IC50 for the following compound: CCN(CC)Cc1nccn1-c1ccc([N+](=O)[O-])cc1C(=O)c1ccccc1Cl [Nizofenone]
Response: 23.5 µM

Prompt: Give IC50 for the following compound: COc1ccc2nc3cc(Cl)ccc3c(Nc3cc(CN4CCCC4)c(O)c(CN4CCCC4)c3)c2n1 [Pyronaridine]
Response: 1.87 µM

Prompt: Give IC50 for the following compound: c1ccc2c(c1)[I+]c1ccccc1-2 [Diphenyleneiodonium]
Response: 0.132 µM

* * *

# Test system: P. falciparum 3D7 gametocytes
# measurementProtocol: alamarBlue gametocyte viability assay, strain 3D7
# Format: cell-based, Plasmodium falciparum
# settings: Malaria Box; DMSO set at 0%, 100 nM epoxomicin set at -100%
Note to self: Max Resp under -70% means Condition met, ties and anything higher get Condition not met.

Consider the worked cases shown below.
Prompt: Lab log: compare recorded Max Resp with -70%; is it strictly lower for COc1cccc(O)c1CN1CCC2(CCCN(Cc3ccc(F)cc3)C2)C1 (stereo not drawn) ?
Response: Condition not met

Prompt: Lab log: compare recorded Max Resp with -70%; is it strictly lower for `CCOc1ccc(Nc2c3ccccc3nc3ccccc23)cc1.Cl` ?
Response: Condition met

Prompt: Lab log: compare recorded Max Resp with -70%; is it strictly lower for `CCCCNCC(O)(c1ccc(Cl)cc1)c1ccc(Cl)cc1` ?
Response: Condition met

Prompt: Lab log: compare recorded Max Resp with -70%; is it strictly lower for `CCCCN(CCCC)S(=O)(=O)c1ccc(NC(=O)c2ccco2)cc1` ?
Response: Condition not met

Prompt: Lab log: compare recorded Max Resp with -70%; is it strictly lower for CCOc1c(Cl)cc(CNC(C)C(O)c2ccccc2)cc1OC (stereo not drawn) ?
Response: Condition met

Prompt: Lab log: compare recorded Max Resp with -70%; is it strictly lower for `Cc1cc(C)c2nc(N3CCC(C(=O)NCCCN4CCC(N5CCCCC5)CC4)CC3)sc2c1` ?
Response: Condition met

Prompt: Lab log: compare recorded Max Resp with -70%; is it strictly lower for `Cc1[nH]c(-c2ccc(F)cc2)cc1C(=O)NC1CCN(Cc2ccccc2)CC1` ?
Response: Condition not met

Prompt: Lab log: compare recorded Max Resp with -70%; is it strictly lower for `O=C(NC1CCCC1)c1ccc(N2CCC(NCc3cccc(C(F)(F)F)c3)CC2)cc1` ?
Response: Condition not met

Then this molecule:
Prompt: Lab log: compare recorded Max Resp with -70%; is it strictly lower for CC1CC2=C(CC1CNCCCN(C)C)C(C)(C)CCC2 (stereo not drawn) ?
Response: Condition met

* * *

# Max Resp per record follows
# Tested on: P. falciparum 3D7 gametocytes
# measurementProtocol: alamarBlue gametocyte viability assay, strain 3D7
# Type: cell-based, Plasmodium falciparum
# settings: Malaria Box; DMSO set at 0%, 100 nM epoxomicin set at -100%
Field: numeric (%). Do not append units.

Check out these entries, answers already filled in.
Prompt: Give Max Resp for the following molecule: `CCCc1c(C)nc2ccc(Br)cc2c1O`
Response: 28

Prompt: Give Max Resp for the following molecule: `CCn1c(CN2CCN(Cc3ccccc3)CC2)nc2cc(NC(=O)c3cccs3)ccc21`
Response: -25

Prompt: Give Max Resp for the following molecule: OC(Cn1nnc2ccccc21)Cn1c2ccc(Br)cc2c2cc(Br)ccc21 (centres unmarked)
Response: -60

Prompt: Give Max Resp for the following molecule: O=C(NCC1Cc2cccc(-c3ccncc3)c2O1)c1csc2c1CCCC2 (centres unmarked)
Response: 5

Please examine the following record next.
Prompt: Give Max Resp for the following molecule: `CCCn1c(=N)c(C(=O)NC2CCCCC2)cc2c(=O)n3cccc(C)c3nc21`
Response: -26

* * *

# Test system: HepG2 cells
# settings: HepG2 cells
assayMetric: % Max response (%)
Field: numeric (%). Do not append units.

Check out these entries, answers already filled in.
Prompt: Give % Max response for the following compound: `COc1ncc(-c2ccc3nccc(-c4ccnnc4)c3c2)cc1NS(=O)(=O)c1ccc(F)cc1F`
Response: 33

Prompt: Give % Max response for the following compound: `CC(=O)OC[C@H]1O[C@@H]([S-])[C@H](OC(C)=O)[C@@H](OC(C)=O)[C@@H]1OC(C)=O.CCP(CC)CC.[Au+]`
Response: -98

Prompt: Give % Max response for the following compound: `CC1(C)OC2=C(C(=O)c3ccccc3C2=O)[C@H](NCc2ccccc2)[C@@H]1O`
Response: -86

Prompt: Give % Max response for the following compound: `COC(=O)C[C@](O)(CCCC(C)(C)O)C(=O)O[C@@H]1C(OC)=C[C@]23CCCN2CCc2cc4c(cc2[C@H]13)OCO4`
Response: -27

***
Prompt: Give % Max response for the following compound: C=CC1CN2CCC1CC2C(O)c1ccnc2ccc(OC)cc12.C=CC1CN2CCC1CC2C(O)c1ccnc2ccc(OC)cc12.O=S(=O)(O)O (centres unmarked) [Quinine hemisulfate]
Response: 2
